Every entry's value here was drawn from ChEMBL document CHEMBL3797052.

# experiment-notes: Antiproliferative activity against human OVCAR5 cells assessed as growth inhibition after 48 hrs by sulforhodamine B assay
# Format: functional
# settings: OVCAR-5, 48 h
This section presents compounds with their documented GI50 values.

# structure-smiles, GI50 (nM)
data = [
    ("CNC(=O)c1cc(Oc2ccc(NC(=O)Nc3ccc(Cl)c(C(F)(F)F)c3)cc2)ccn1", 3160),
    ("CNC(=O)c1cc(Oc2ccc3nc(NC(=O)c4cc(C(F)(F)F)cc(C(F)(F)F)c4)sc3c2)ccn1", 4230),
    ("CNC(=O)c1cc(Oc2ccc3nc(NC(=O)Nc4cc(C(F)(F)F)cc(C(F)(F)F)c4)sc3c2)ccn1", 1550),
    ("CNC(=O)c1cc(Oc2ccc3nc(NC(=O)Nc4ccc(Cl)c(C(F)(F)F)c4)sc3c2)ccn1", 2460),
]
